All values here come from the NIST ThermoML archive (doi:10.1016/j.fluid.2014.11.020).

activity coefficient for assorted compounds
MEASUREMENT PROTOCOL: activity coefficient (dimensionless); of the first substance listed, at infinite dilution; xn = mol fraction of the nth substance listed
CONDITION NOTES: 323.15 K; Liquid; Chromatography; x1 = 0

# COMPOUND, activity coefficient
measured = [
    ("C#CCCCC [1-hexyne] + N#C[N-]C#N.N#C[N-]C#N.c1ccc(Cn2cc[n+](COCCCOC[n+]3ccn(Cc4ccccc4)c3)c2)cc1", 14.1),
    ("CC(C)CC(C)(C)C [2,2,4-trimethylpentane] + CN(C)c1cc[n+](COCCCOC[n+]2ccc(N(C)C)cc2)cc1.O=S(=O)([N-]S(=O)(=O)C(F)(F)F)C(F)(F)F.O=S(=O)([N-]S(=O)(=O)C(F)(F)F)C(F)(F)F", 31.7),
    ("CCCO [propan-1-ol] + Cn1cc[n+](COCCCOC[n+]2ccn(C)c2)c1.O=S(=O)([N-]S(=O)(=O)C(F)(F)F)C(F)(F)F.O=S(=O)([N-]S(=O)(=O)C(F)(F)F)C(F)(F)F", 1.43),
    ("c1ccncc1 [pyridine] + CCCOC[n+]1ccn(Cc2ccccc2)c1.N#C[N-]C#N", 0.67),
    ("C[N+](=O)[O-] [nitromethane] + CCCOC[n+]1ccn(C)c1.N#C[N-]C#N", 0.69),
]

Reported activity coefficient of CCCC(C)=O [pentan-2-one] + CCCOC[n+]1ccn(C)c1.O=S(=O)([N-]S(=O)(=O)C(F)(F)F)C(F)(F)F : 0.72

Reported activity coefficient of CCCCCC [hexane] + CCCOC[n+]1ccc(N(C)C)cc1.O=S(=O)([N-]S(=O)(=O)C(F)(F)F)C(F)(F)F : 11.9

Reported activity coefficient of C1COCCO1 [1,4-dioxane] + CCCOC[n+]1ccn(Cc2ccccc2)c1.F[B-](F)(F)F : 0.95

Reported activity coefficient of c1ccsc1 [thiophene] + CCCOC[n+]1ccc(N(C)C)cc1.O=S(=O)([N-]S(=O)(=O)C(F)(F)F)C(F)(F)F : 0.65

Reported activity coefficient of C#CCCCC [1-hexyne] + CCCOC[n+]1ccn(C)c1.O=S(=O)([N-]S(=O)(=O)C(F)(F)F)C(F)(F)F : 3.39

Reported activity coefficient of C1COCCO1 [1,4-dioxane] + CCCCCCCCn1cc[n+](COCCCOC[n+]2ccn(CCCCCCCC)c2C)c1C.N#C[N-]C#N.N#C[N-]C#N : 0.55

Reported activity coefficient of CCO [ethanol] + CCCOC[n+]1ccn(Cc2ccccc2)c1.F[B-](F)(F)F : 1.65

Reported activity coefficient of C#CCCCCC [1-heptyne] + CCCOC[n+]1ccn(Cc2ccccc2)c1.F[B-](F)(F)F : 8.53

Reported activity coefficient of CCC(C)=O [butanone] + CCCCCCCCn1cc[n+](COCCCOC[n+]2ccn(CCCCCCCC)c2C)c1C.O=S(=O)([N-]S(=O)(=O)C(F)(F)F)C(F)(F)F.O=S(=O)([N-]S(=O)(=O)C(F)(F)F)C(F)(F)F : 0.21

Reported activity coefficient of Cc1ccccc1C [1,2-dimethylbenzene] + CCCOC[n+]1ccc(N(C)C)cc1.O=S(=O)([N-]S(=O)(=O)C(F)(F)F)C(F)(F)F : 1.24

Reported activity coefficient of Cc1ccc(C)cc1 [1,4-dimethylbenzene] + CCCCCCCCn1cc[n+](COCCC)c1C.N#C[N-]C#N : 1.51

Reported activity coefficient of C#CCCCCC [1-heptyne] + CCCCCCCCn1cc[n+](COCCCOC[n+]2ccn(CCCCCCCC)c2C)c1C.N#C[N-]C#N.N#C[N-]C#N : 2.1

Reported activity coefficient of CCCCCCCCCCC [undecane] + CCCOC[n+]1ccn(Cc2ccccc2)c1.F[B-](F)(F)F : 352
